biological target: human S1P1 receptor (Homo sapiens); construct: membranes used; assay: GTP γ35S binding assay for S1P1 activity; conditions: membranes of cells stably expressing S1P1 receptor, 30 min at 25° C.
Sequence (P21453 whole entry): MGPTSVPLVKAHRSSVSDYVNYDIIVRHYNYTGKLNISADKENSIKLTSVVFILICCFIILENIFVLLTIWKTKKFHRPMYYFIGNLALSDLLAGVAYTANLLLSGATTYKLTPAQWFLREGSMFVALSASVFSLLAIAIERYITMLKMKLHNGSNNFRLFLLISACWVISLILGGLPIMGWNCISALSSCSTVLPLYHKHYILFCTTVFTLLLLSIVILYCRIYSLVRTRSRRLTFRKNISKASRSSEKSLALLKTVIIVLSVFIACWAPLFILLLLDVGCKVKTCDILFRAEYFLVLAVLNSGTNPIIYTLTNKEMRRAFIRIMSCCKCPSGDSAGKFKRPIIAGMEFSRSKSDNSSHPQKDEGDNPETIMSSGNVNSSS
The reader will find reported pEC50 values listed item by item below.
The meaning of pEC50 here: minus log10 of the concentration in molar units.

Worked examples follow.
O=C(O)C1CN(Cc2ccc(OCCCCCc3ccccc3)c(-n3cccn3)c2)C1 : 7.66
O=C(O)C1CC(NCc2ccc(OCCCCCc3ccccc3)c(-c3cccs3)c2)C1 (centres unmarked) : 7.82
O=C(O)C1CN(Cc2ccc(OCCCCCc3ccccc3)c(C3=CCCC3)c2)C1 : 7.89
O=C(O)C1CN(Cc2ccc(OCCCCCc3ccccc3)c(-c3cccs3)c2)C1 : 7.82

// returns reported pEC50 for input O=C(O)C1CN(Cc2ccc(SCCCCCc3ccccc3)c(-c3cccs3)c2)C1
6.74

Every entry's value here was drawn from patent US8653062B2.
